Data origin: ChEMBL document CHEMBL1133533

tested.target: D(2) dopamine receptor (Homo sapiens)
Sequence (P14416 whole entry): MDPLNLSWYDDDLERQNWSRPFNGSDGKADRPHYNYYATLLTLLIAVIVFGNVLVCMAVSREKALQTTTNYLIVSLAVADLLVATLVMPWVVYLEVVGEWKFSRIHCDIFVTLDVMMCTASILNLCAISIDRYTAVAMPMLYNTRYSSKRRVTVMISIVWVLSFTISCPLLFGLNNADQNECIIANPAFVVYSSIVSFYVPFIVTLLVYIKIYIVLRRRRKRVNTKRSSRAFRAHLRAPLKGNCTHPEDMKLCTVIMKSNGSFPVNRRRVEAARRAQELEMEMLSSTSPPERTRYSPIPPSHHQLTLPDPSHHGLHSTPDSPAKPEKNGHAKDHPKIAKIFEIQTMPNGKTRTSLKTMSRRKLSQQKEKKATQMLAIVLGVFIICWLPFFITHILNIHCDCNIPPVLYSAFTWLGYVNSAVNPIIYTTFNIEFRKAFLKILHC
assay.name: Displacement of [3H]spiperone from human Dopamine receptor D2L expressed in CHO cells
Format: cell-based
pKi: −log10 of the molar value.
Entries and their pKi
measure: pKi

1) N#Cc1ccc2cc(CN3CCN(c4ccc(Cl)c(Cl)c4)CC3)[nH]c2c1
5.70
2) N#Cc1ccc2[nH]c(CN3CCN(c4ccc(Cl)c(Cl)c4)CC3)cc2c1
4.37
3) N#Cc1ccc2[nH]cc(CN3CCN(c4ccc(Cl)cc4)CC3)c2c1
5.37
4) N#Cc1ccc2[nH]c(CN3CCN(c4ccccc4)CC3)cc2c1
5.51
5) N#Cc1ccc2[nH]cc(CN3CCN(c4ccccc4Cl)CC3)c2c1
5.85
6) N#Cc1ccc2[nH]cc(CN3CCN(c4ccc(F)cc4)CC3)c2c1
5.62
7) N#Cc1ccc2[nH]c(CN3CCN(c4ccccc4Cl)CC3)cc2c1
5.64
8) N#Cc1ccc2[nH]cc(CN3CCN(c4ccc(Cl)c(Cl)c4)CC3)c2c1
6.10
9) N#Cc1ccc2[nH]c(CN3CCN(c4ccc(F)cc4)CC3)cc2c1
4.55
10) N#Cc1ccc2cc(CN3CCN(c4ccccc4)CC3)[nH]c2c1
5.25
11) N#Cc1ccc2[nH]cc(CN3CCN(c4ccccc4)CC3)c2c1
4.47
12) N#Cc1ccc2[nH]c(CN3CCN(c4ccc(Cl)cc4)CC3)cc2c1
5.10

====

tested.target: D(4) dopamine receptor (Homo sapiens, UniProt P21917)
Sequence (P21917 whole entry): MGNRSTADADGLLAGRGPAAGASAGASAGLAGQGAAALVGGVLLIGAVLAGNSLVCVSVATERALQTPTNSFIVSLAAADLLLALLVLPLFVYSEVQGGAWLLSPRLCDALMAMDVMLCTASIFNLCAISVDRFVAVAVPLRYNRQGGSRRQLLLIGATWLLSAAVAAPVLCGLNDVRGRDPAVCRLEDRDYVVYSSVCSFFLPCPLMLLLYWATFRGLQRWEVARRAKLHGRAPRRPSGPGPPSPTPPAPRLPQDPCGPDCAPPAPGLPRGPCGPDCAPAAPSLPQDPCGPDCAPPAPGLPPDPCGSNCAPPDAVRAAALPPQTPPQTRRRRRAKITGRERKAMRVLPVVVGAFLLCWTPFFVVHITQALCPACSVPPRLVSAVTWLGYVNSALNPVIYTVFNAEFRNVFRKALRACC
assay.name: Effective dose was measured by the stimulation of mitogenesis at dopamine D4.2 receptor
measure: EC50 (nM)

1. N#Cc1ccc2[nH]c(CN3CCN(c4ccc(F)cc4)CC3)cc2c1
9.4

====

tested.target: D(3) dopamine receptor (Homo sapiens, UniProt P35462)
Sequence (P35462 whole entry): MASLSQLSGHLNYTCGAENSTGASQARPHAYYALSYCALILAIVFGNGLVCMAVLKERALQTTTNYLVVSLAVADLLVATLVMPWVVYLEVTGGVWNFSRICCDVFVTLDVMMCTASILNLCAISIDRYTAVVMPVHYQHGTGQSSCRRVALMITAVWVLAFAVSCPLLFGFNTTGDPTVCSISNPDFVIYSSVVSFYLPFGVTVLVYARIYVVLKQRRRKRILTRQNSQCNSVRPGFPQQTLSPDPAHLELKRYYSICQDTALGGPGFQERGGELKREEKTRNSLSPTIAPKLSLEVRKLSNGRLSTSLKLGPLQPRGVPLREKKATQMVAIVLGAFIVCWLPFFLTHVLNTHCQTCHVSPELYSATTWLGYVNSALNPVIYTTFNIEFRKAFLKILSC
So basically, if Ki comes in under 3000 nM it's fulfilled, and if it's 3000 nM or more it's not fulfilled.

1. N#Cc1ccc2cc(CN3CCN(c4ccccc4)CC3)[nH]c2c1
not fulfilled
2. N#Cc1ccc2[nH]cc(CN3CCN(c4ccc(Cl)c(Cl)c4)CC3)c2c1
fulfilled
3. N#Cc1ccc2[nH]c(CN3CCN(c4ccc(Cl)c(Cl)c4)CC3)cc2c1
not fulfilled
4. N#Cc1ccc2[nH]cc(CN3CCN(c4ccc(F)cc4)CC3)c2c1
not fulfilled
5. N#Cc1ccc2cc(CN3CCN(c4ccccc4Cl)CC3)[nH]c2c1
fulfilled
6. N#Cc1ccc2[nH]c(CN3CCN(c4ccccc4)CC3)cc2c1
fulfilled
7. N#Cc1ccc2[nH]c(CN3CCN(c4ccc(F)cc4)CC3)cc2c1
not fulfilled
8. N#Cc1ccc2[nH]c(CN3CCN(c4ccc(Cl)cc4)CC3)cc2c1
not fulfilled
9. N#Cc1ccc2[nH]c(CN3CCN(c4ccccc4Cl)CC3)cc2c1
fulfilled
10. N#Cc1ccc2[nH]cc(CN3CCN(c4ccccc4Cl)CC3)c2c1
fulfilled
